// reported minimum inhibitory concentration per item
System: Mannheimia haemolytica
Experiment: minimum inhibitory concentration (MIC)
Details: isolate (source animal id): 49
Reported Property: minimum inhibitory concentration

>  <Compound Structure>
CC[C@H]1OC(=O)C[C@@H](O)[C@H](C)[C@@H](O[C@@H]2O[C@H](C)[C@@H](O[C@H]3C[C@@](C)(O)[C@@H](O)[C@H](C)O3)[C@H](N(C)C)[C@H]2O)[C@@H](CC=O)C[C@@H](C)C(=O)/C=C/C(C)=C/[C@@H]1CO[C@@H]1O[C@H](C)[C@@H](O)[C@@H](OC)[C@H]1OC

>  <Subject Of Test>
Mannheimia haemolytica

>  <Result>
> 32 µg/mL

$$$$
>  <Compound Structure>
CC[C@H]1OC(=O)C[C@@H](O)[C@H](C)[C@@H](O[C@@H]2O[C@H](C)[C@@H](O)[C@H](N(C)C)[C@H]2O)[C@@H](CCN2CCCCC2)C[C@@H](C)C(=O)/C=C/C(C)=C/[C@@H]1CN1CCCCC1

>  <Subject Of Test>
Mannheimia haemolytica

>  <Result>
16 µg/mL

$$$$
>  <Compound Structure>
COc1cc(NS(=O)(=O)c2ccc(N)cc2)nc(OC)n1

>  <Subject Of Test>
Mannheimia haemolytica

>  <Result>
> 256 µg/mL

$$$$
